The reported numbers originate from the supplement of paper PMC11732987.

Molecular target: VCPIP1 (UniProt Q96JH7)
Sequence (whole entry): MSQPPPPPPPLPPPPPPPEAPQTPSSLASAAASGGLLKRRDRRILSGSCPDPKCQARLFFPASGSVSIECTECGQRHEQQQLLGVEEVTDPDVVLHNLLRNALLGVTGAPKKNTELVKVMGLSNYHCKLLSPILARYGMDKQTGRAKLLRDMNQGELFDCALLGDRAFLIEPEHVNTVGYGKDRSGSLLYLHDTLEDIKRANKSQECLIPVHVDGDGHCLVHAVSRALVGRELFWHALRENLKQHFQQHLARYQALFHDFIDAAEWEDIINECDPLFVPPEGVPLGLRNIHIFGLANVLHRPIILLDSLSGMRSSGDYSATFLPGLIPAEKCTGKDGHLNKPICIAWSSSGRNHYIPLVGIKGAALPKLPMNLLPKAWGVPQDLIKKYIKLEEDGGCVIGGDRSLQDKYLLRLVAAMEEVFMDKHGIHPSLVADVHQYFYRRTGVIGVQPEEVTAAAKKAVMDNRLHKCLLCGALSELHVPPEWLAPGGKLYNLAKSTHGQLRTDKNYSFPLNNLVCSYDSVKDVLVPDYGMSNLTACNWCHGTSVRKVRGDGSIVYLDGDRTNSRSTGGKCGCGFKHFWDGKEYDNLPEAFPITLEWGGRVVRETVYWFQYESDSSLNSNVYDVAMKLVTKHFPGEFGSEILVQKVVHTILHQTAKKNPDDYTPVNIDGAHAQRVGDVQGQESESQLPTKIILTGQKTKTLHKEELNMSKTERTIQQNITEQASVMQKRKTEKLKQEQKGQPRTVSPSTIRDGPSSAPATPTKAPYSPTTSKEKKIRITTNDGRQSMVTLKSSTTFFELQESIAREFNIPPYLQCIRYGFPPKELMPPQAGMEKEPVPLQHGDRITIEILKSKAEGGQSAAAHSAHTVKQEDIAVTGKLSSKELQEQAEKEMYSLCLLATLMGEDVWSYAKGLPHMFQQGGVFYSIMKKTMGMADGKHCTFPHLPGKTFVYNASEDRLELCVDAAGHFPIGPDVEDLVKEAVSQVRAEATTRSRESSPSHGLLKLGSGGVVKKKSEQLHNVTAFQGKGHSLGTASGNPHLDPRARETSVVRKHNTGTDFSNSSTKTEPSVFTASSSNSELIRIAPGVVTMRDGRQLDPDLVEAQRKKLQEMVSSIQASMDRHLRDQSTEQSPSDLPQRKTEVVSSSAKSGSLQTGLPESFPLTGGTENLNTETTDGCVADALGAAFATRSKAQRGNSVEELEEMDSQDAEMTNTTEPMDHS
Assay: log2 ratio of Biotin-Ahx-Ub-VS probe labelling (fragment/DMSO); higher = less target engagement (more negative = stronger competition), active = hit call of the paper (q ≤ 0.05, log2 ratio ≤ -1)
Conditions: compound concentration: 200 uM; treatment time: 3 h
Your reply should match one of these outcome classes. active, inactive

> print(dat)
                                   compound                tested.on  group.label
1  Cc1cccc(C(CNC(=O)CCl)N2CCOCC2)c1.Cl (stereo not given)  VCPIP1 (UniProt Q96JH7)     inactive

What classification did O=C(CCl)N1CCCCCC1c1ncon1 (stereo not given) end up with in this test?
inactive

What classification did `Cc1nc(-c2cccc(NC(=O)CCl)c2)cs1` end up with in this test?
active

What classification did CC(c1ccccc1)N(C)C(=O)CCl (stereo not given) end up with in this test?
inactive

What classification did O=C(CCl)NCCC1COCCO1 (stereo not given) end up with in this test?
inactive

What classification did `CS(=O)(=O)c1ccc(NC(=O)CCl)cc1` end up with in this test?
active
